Data provenance: PubChem BioAssay

# assay_text: PSAC antagonists in infected red cells, primary screen, cell-based, P. falciparum Indochina, OD700, 1 h (AID 1154)
# condition_details: P. falciparum Indochina infected RBC osmotic lysis, higher = more signal, called active from +8 up or from −8 down
Exercise: for every item that follows, state its recorded z-score.
Answers are plain numbers.

// batch mode: one z-score value per listed entry
1. COc1ccc([Si](C)(C)[C@H]2[C@H](CCO)O[C@@]3(C(=O)N(Cc4ccc(N5C(=O)COc6ccccc65)cc4)c4ccccc43)[C@@H]2C)cc1
2. CC1CC/C=C\[C@H]2OC34C=CCN(c5ccc(Cl)cc5)C(=O)[C@H]3N(CCO)C(=O)[C@]4(C)C2C(=O)O1 (stereo partly specified)
3. C=CCOC(=O)[C@@H]1[C@H]2C(=O)O[C@H](c3ccccc3)[C@H](c3ccccc3)N2[C@H](c2ccc(OCCOC(=O)[C@@H]3C[C@@H]4C(=O)N[C@@H](Cc5ccccc5)C(=O)N4[C@@H]3c3ccc(O)cc3)cc2)[C@@]12C(=O)Nc1ccc(I)cc12
4. CCCCc1cn(C[C@H](Cc2ccccc2)NC(=O)N[C@H](CO)CCc2oc(C(C)=O)c(C(=O)OC)c2C(=O)OC)nn1
5. CC(C)(C)OC(=O)CC[C@]1(C(=O)O)N=C(c2ccc(OCCCO)cc2)O[C@H]1c1ccccc1N=[N+]=[N-]
6. COC(=O)[C@@]1(Cc2ccc(F)cc2)[C@@H]2[C@@H](CC(=O)[C@H]2CC(=O)C(=O)N(C)C)CN1C(=O)c1ccccc1

5
2.73
2.33
1.66
32.9
2.32

====

# assay_text: MM1S myeloma cell viability, profiling panel, resazurin fluorescence, basal, 24 h, PK04 Diversity Set (AID 1174);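 note: MM1S multiple myeloma cell line; test concentration not given here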
# condition_details: called active from +8 up or from −8 down
The source made the active and inactive calls.
Choose the fitting class; nothing outside active, inactive is accepted.

Known results for compounds:
# chem_smiles, cat
data = [
    ("COC(=O)[C@@]1(Cc2ccc(OC)cc2)[C@H]2c3cc(C(=O)N4CCCC4)n(Cc4ccsc4Br)c3C[C@H]2CN1C(=O)c1ccccc1", "active"),
    ("C=C[C@H](COC(C)=O)N(C(=O)OC(C)(C)C)S(=O)(=O)c1ccc(Br)cc1", "inactive"),
    ("COCC(=C=CC[C@H](O)c1ccccc1OCCO)C[C@H](O)c1cc(Cl)cc(Cl)c1O", "inactive"),
]

Kindly consider the entry below.
Recorded call for CCCCCCC#C[Si](O[C@H](c1ccccc1)c1cn([C@H](CO)Cc2ccccc2)nn1)(C(C)C)C(C)C ?
inactive

====

# measurement_target: Torsin-1A-interacting protein 1 (Homo sapiens)
# assay_text: LAP1 binders from COS7 cell lysate, primary screen, small-molecule microarray, 635/667 nm fluorescence (AID 1116)
# condition_details: COS7-hLAP1 lysate binding, 635 nm fluorescence, higher = more signal
Is composite z-score at least 0.7? Then criterion met. If not, criterion not met.

Known results for compounds:
# compound, cat
records = [
    ("CCOC(=O)C[C@H]1[C@H](OC(=O)Cc2ccc3c(c2)OCO3)[C@@H](NC(=O)c2ccc(-c3ccccc3)cc2)c2cc(OCCCO)ccc2N1C(=O)c1ccc2ccccc2n1", "criterion not met"),
    ("[N-]=[N+]=Nc1ccccc1C[C@]1(C(=O)NCC(O)CO)N=C(c2ccc(OCCCO)cc2)O[C@H]1c1ccccc1N=[N+]=[N-] (stereo partly specified)", "criterion not met"),
    ("C=CCOC(=O)[C@H]1[C@@H]2C(=O)O[C@@H](c3ccccc3)[C@@H](c3ccccc3)N2[C@@H](c2ccc(OCCOC(=O)[C@H]3C[C@H]4C(=O)N5CCC[C@H]5C(=O)N4[C@H]3c3ccc(O)cc3)cc2)[C@]12C(=O)Nc1ccccc12", "criterion met"),
    ("C=CCOC(=O)[C@H]1[C@@H]2C(=O)O[C@@H](c3ccccc3)[C@@H](c3ccccc3)N2[C@@H](c2ccc(OCCOC(=O)[C@H]3C[C@H]4C(=O)N5CCC[C@H]5C(=O)N4[C@H]3c3ccc(O)cc3)cc2)[C@]12C(=O)Nc1ccc(I)cc12", "criterion met"),
    ("COCCOC(=O)N1C(=O)[C@@]2(c3cc(C#CCCO)ccc31)[C@H](C(=O)N1CCN(c3ncccn3)CC1)[C@H]1C(=O)O[C@H](c3ccccc3)[C@H](c3ccccc3)N1[C@@H]2c1ccccc1OCCO", "criterion not met"),
]

Hello, I need to know if COC(=O)C=C(CC(O)c1cccc(Cl)c1)OC (stereo unspecified) has measured composite z-score not below 0.7. Thanks!
criterion met

Hello, I need to know if O=C1O[C@H](c2ccccc2)[C@H](c2ccccc2)N2[C@H]1[C@@H](C(=O)Nc1nc3ccccc3s1)[C@]1(C(=O)Nc3ccc(C#CCCO)cc31)[C@H]2c1ccc(OCCO)cc1 has measured composite z-score not below 0.7. Thanks!
criterion met

Hello, I need to know if COc1ccc([Si](C)(C)[C@H]2[C@H](CCO)O[C@@]3(C(=O)N(C)c4c(Br)cc(C)cc43)[C@@H]2C)cc1 has measured composite z-score not below 0.7. Thanks!
criterion not met

Hello, I need to know if C=CCNC(=O)[C@H]1[C@@H]2C(=O)O[C@@H](c3ccccc3)[C@@H](c3ccccc3)N2[C@@H](c2ccc(O)cc2)[C@]12C(=O)N(C(=O)OCCOC)c1ccc(C#CCNC(N)=O)cc12 has measured composite z-score not below 0.7. Thanks!
criterion not met

Hello, I need to know if CC(C)(C)C(=O)N[C@@H](c1ccc(Cl)cc1)[C@]1(C)C[C@H]1C1CCCCC1 has measured composite z-score not below 0.7. Thanks!
criterion met

====

# assay_text: adipocyte viability effects, profiling panel, cell-based, 3T3-L1 adipocytes, calcein-AM fluorescence, 48 h, basal (AID 1163); note: test concentration not given here
# condition_details: 3T3-L1 adipocytes viability, higher = more signal
Note to self: z-score under -0.3 means MET, ties and anything higher get NOT MET.

Known results for molecules:
# molecule, cat
rows = [
    ("COc1cc2c(cc1OC)CN(C(=O)[C@@H]1[C@H]3C(=O)O[C@H](c4ccccc4)[C@H](c4ccccc4)N3[C@H](c3ccc(O)cc3)[C@@]13C(=O)Nc1ccc(C#CC4(O)CCCCCC4)cc13)CC2", "NOT MET"),
    ("CCC(CC)C(O)C1C=CC2C(=O)N(C)C(=O)C2N1Nc1ccccc1 (configuration not stated)", "MET"),
    ("COc1ccc([Si](C)(C)[C@H]2[C@H](CCO)O[C@@]3(C(=O)N(Cc4ccc(N5C(=O)COc6ccccc65)cc4)c4ccccc43)[C@@H]2C)cc1", "NOT MET"),
    ("CCCCN1CC=CC23O[C@@H]4/C=C\\CCC(C)OC(=O)C4[C@H]2C(=O)N(CCCCCO)[C@@H]3C1=O (some centres not stated)", "NOT MET"),
    ("[N-]=[N+]=NCc1ccccc1[C@@H]1OC(c2ccc(OCCCO)cc2)=N[C@]1(Cc1ccccc1N=[N+]=[N-])C(=O)N1CCOCC1", "NOT MET"),
    ("O=C(NCc1ccccc1)[C@@]1(CCS(=O)(=O)c2ccccc2)N=C(c2ccc(OCCCO)cc2)O[C@H]1c1ccccc1", "NOT MET"),
]

Kindly consider the entry below.
In the record for COc1ccc(CCNC(=O)[C@@]2(Sc3ccc(C)cc3)CC(=O)N(C3CCCCC3)[C@@H]2c2ccc(CO)cc2I)cc1 , is z-score less than -0.3?
MET

====

# assay_text: PSAC antagonists in infected red cells, primary screen, cell-based, P. falciparum Indochina, OD700, 2 h (AID 1155);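 note: lysis reports solute entry through the parasite surface anion channel PSAC; channel blockers reduce lysis of infected cells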
# condition_details: P. falciparum Indochina infected erythrocytes, osmotic lysis OD700, called active from +8 up or from −8 down
Active and inactive are the calls of the source.
Choose the fitting class; nothing outside label 1 = active, label 0 = inactive is accepted.

Known results for compounds:
# compound, cat
measured = [
    ("COc1ccc([Si](C)(C)[C@H]2[C@H](CC(=O)N3Cc4ccccc4C[C@H]3CO)O[C@@]3(C(=O)N(Cc4ccc(N5CCC5=O)cc4)c4ccccc43)[C@@H]2C)cc1", "label 0"),
    ("O=C1NC(=O)C2C1C=CC(C(O)c1cccc3ccccc13)N2Nc1ccccn1 (stereo unspecified)", "label 0"),
    ("COCCCN1C(=O)[C@@]2(c3ccc([N+](=O)[O-])cc3)CC(=O)N(C3CCCCC3)[C@@H]2c2ccc(CO)cc21", "label 0"),
]

Recorded call for COc1ccc([Si](C)(C)[C@H]2[C@H](CCn3cc([C@H](O)c4ccccc4)nn3)O[C@@]3(C(=O)N(Cc4cccc(N5CCOC5=O)c4)c4ccccc43)[C@@H]2C)cc1 ?
label 1

Recorded call for COCCOC(=O)N1C(=O)[C@@]2(c3cc(C#CC4=CCCCC4)ccc31)[C@H](c1ccc(O)cc1)N1[C@H](c3ccccc3)[C@H](c3ccccc3)OC(=O)[C@H]1[C@@H]2C(N)=O ?
label 0

Recorded call for CC(C)[C@@H](CO)NC(=O)[C@H]1[C@@H](c2ccccc2)N(c2ccccc2)O[C@@H]1C ?
label 0
